target: Dual specificity protein kinase CLK1 (Homo sapiens, UniProt P49759); assay: Inhibition of human 130-end recombinant CLK1 assessed as remaining activity using ERMRPRKRQGSVR as substrate at 100 nM by [gamma-32P]ATP binding based scintillation counting based analysis relative to control
Sequence (P49759 whole entry, looked up): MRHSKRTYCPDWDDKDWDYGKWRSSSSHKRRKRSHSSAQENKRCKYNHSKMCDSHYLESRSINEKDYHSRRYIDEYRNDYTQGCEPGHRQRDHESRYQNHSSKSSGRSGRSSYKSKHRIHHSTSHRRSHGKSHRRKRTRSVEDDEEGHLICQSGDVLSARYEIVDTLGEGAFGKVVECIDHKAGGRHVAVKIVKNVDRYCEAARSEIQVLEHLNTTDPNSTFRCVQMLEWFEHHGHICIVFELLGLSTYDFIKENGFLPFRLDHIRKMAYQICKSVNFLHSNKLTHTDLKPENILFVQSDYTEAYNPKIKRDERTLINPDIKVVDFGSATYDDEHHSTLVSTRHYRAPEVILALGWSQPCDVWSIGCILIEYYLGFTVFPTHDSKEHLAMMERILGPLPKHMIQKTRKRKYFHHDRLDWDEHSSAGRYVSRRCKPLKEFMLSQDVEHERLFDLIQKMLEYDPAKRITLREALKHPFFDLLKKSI
Each entry gets 0.0 if its Activity stays under 20%, and 1.0 if its Activity is 20% or above.

> print(dat)
                              smiles.record  discrete.label
1  COc1cncc(-c2c[nH]c3ncc(NCc4ccc(N5CCOCC5)cc4)cc23)c1             0.0
2  COc1cncc(-c2c[nH]c3ncc(NCc4cccc(F)c4)cc23)c1             0.0
3  Fc1cccc(/C=N/c2cnc3[nH]cc(-c4cncc(F)c4)c3c2)c1             1.0

Hello, I need to know if COc1cncc(-c2c[nH]c3ncc(NCc4cc(F)cc(F)c4)cc23)c1 has measured Activity not below 20%. Thanks!
0.0

Hello, I need to know if COc1ccc(-c2cnc3ccc(NCc4cc(F)cc(F)c4)cn23)cc1 has measured Activity not below 20%. Thanks!
1.0

Hello, I need to know if O=C(Nc1cnc2[nH]cc(-c3cccnc3)c2c1)c1ccc(C(F)(F)F)c(F)c1 has measured Activity not below 20%. Thanks!
1.0

* * *

target: Dual specificity tyrosine-phosphorylation-regulated kinase 1A (Homo sapiens, UniProt Q13627); assay: Inhibition of human full length recombinant DYRK1A assessed as remaining activity using RRRFRPASPLRGPP as substrate at 100 nM by [gamma-32P]ATP binding based scintillation counting based analysis relative to control
Decision: Activity beneath 90% gives criterion met; Activity meeting or exceeding 90% gives criterion not met.

Field: example entries. Status: answers known.
> print(dat)
                              smiles.record     discrete.label
1  CN1CCN(c2ccc(CNc3cnc4[nH]cc(-c5cncc(F)c5)c4c3)cc2)CC1  criterion not met
2  Fc1cc(F)cc(CNc2cnc3[nH]cc(C4=CCCCC4)c3c2)c1  criterion not met
3  FC(F)(F)c1cccc(CNc2cnc3[nH]cc(-c4cccnc4)c3c2)c1  criterion not met
4  CN1CCN(c2ccc(C(=O)Nc3cnc4[nH]cc(-c5cncc(F)c5)c4c3)cc2)CC1      criterion met
5  c1cncc(-c2c[nH]c3ncc(NCc4ccc(N5CCOCC5)cc4)cc23)c1      criterion met

Given Nc1ncc(-c2c[nH]c3ncc(NCc4cc(F)cc(F)c4)cc23)cn1 , is recorded Activity strictly lower than 90%?
criterion not met

Given COc1cncc(-c2c[nH]c3ncc(NCc4ccc(N5CCOCC5)cc4)cc23)c1 , is recorded Activity strictly lower than 90%?
criterion met

Given O=C(Nc1cnc2[nH]cc(-c3cncc(F)c3)c2c1)c1ccc(F)cc1 , is recorded Activity strictly lower than 90%?
criterion met

Given CCCc1ccc(-c2c[nH]c3ncc(NCc4cc(F)cc(F)c4)cc23)cc1 , is recorded Activity strictly lower than 90%?
criterion not met

* * *

experiment: AUC (0 to t) in Balb/c mouse at 10 mg/kg, iv measured upto24 hrs by LC/MS/MS analysis; assay type: ADME, organism-based; parameters: time 24 hrs, dose 10 mg/kg, route iv; details: in vivo
REPORTED_PROPERTY: AUC(0-t) at 24 h (ng·h/mL)
Respond numerically; units are ng·h/mL and should not be typed.

Supply AUC(0-t) at 24 h value. Item: CN1CCN(c2ccc(C(=O)Nc3cnc4[nH]cc(-c5cncc(F)c5)c4c3)cc2)CC1
9520

Values from ChEMBL document CHEMBL5385882
